# SUBJECT_OF_TEST: first (BD1: amino acids K57-E168) bromodomain of BRD4 (Homo sapiens, UniProt O60885)
# Construct: His-tagged first (BD1: amino acids K57-E168)
# PROTOCOL_NOTES: TR-FRET bromodomain binding assay, BRD4 BD1
# CONDITION_PARAMETERS: TR-FRET assay protocol (A-G, compound concentration range); Ki calculated from IC50, probe Kd and probe concentration; read-out: TR-FRET Binding Ki: BRD4 (BDI_K57-E168)
OUTCOME_MEASURE: Ki (µM)

1. CN(C)C(=O)c1cc(F)cc(-c2cc(=O)n(C)nc2-c2ccccc2Oc2ccccc2)c1 [Example 152]; 6.62
2. COC(=O)/C=C/c1cc(=O)n(C)nc1-c1ccccc1Oc1ccccc1 [Example 219]; 7.25
3. CCS(=O)(=O)Nc1ccc(Oc2ccc(F)cc2F)c(-c2cn(C)c(=O)cc2-c2ccc(CN(C)C)cc2)c1 [Example 280]; 0.0038

(I) CCS(=O)(=O)Nc1ccc(Oc2ccc(F)cc2F)c(-c2cn(C)c(=O)cc2OCC2CCN(C)C2)c1 (stereo not drawn) [Example 323]
(II) Cn1cc(-c2cc(NS(C)(=O)=O)ccc2Oc2ccccc2C(F)(F)F)ccc1=O [Example 236]
Returns the identifier with the smallest measured Ki among I and II . Answer = label.
II
(II: 0.0142 µM, I: 0.15 µM)

(P) CCOc1cc(=O)n(C)cc1-c1cc(NC(=O)c2ccc(-c3ccccc3)cc2)ccc1Oc1ccc(F)cc1F [Example 304]
(Q) Cn1cc(-c2cc(NS(C)(=O)=O)ccc2Oc2ccc(F)cc2F)c(C(F)(F)F)cc1=O [Example 5]
API: POST /compare with P and Q ; response names the item with higher Ki. Answer = label.
Q

(a) Cn1cc(-c2cc(NS(C)(=O)=O)ccc2Oc2ccccc2C#N)ccc1=O [Example 237]
(b) Cn1nc(-c2ccccc2Oc2ccccc2)c(-c2cccc(C(=O)N3CCCCC3)c2)cc1=O [Example 157]
API: POST /compare with a and b ; response names the item with higher Ki. Answer = label.
b
(b: 5.51 µM, a: 0.0162 µM)

* * *

# SUBJECT_OF_TEST: second (BD2: amino acids E352-E168) bromodomain of BRD4 (Homo sapiens, UniProt O60885)
# Construct: protocol
# PROTOCOL_NOTES: TR-FRET bromodomain binding assay, BRD4 BD2
# CONDITION_PARAMETERS: TR-FRET assay protocol (D, E or G) per compound; Ki calculated from IC50, probe Kd and probe concentration; read-out: TR-FRET Binding Ki: BRD4 (BDII_E352-M457)
# Experimental: A time-resolved fluorescence resonance energy transfer (TR-FRET) assay was used to determine the affinities of compounds of the Examples listed in Table 1 for each bromodomain of BRD4. […] TR-FRET data were normalized to the means of 24 no-compound controls (“high”) and 8 controls containing 1 μM un-labeled probe (“low”). […] Inhibition constants (Ki) were calculated from the IC50s, probe Kd and probe concentration. […]
OUTCOME_MEASURE: Ki (nM)

Below, each entry is followed by its recorded Ki result.
1) CCS(=O)(=O)Nc1ccc(Oc2ccc(F)cc2F)c(-c2cn(C)c(=O)cc2-c2ccc(C)s2)c1 [Example 407]; 2.06
2) CCOc1cc(=O)n(C)cc1-c1cc(NS(=O)(=O)CC)ccc1OC1Cc2ccccc2C1 [Example 394]; 516
3) CCOc1cc(=O)n(C)cc1-c1cc(NC(=O)c2ccc(C(C)C)cc2)ccc1Oc1ccc(F)cc1F [Example 413]; 148
4) CCOc1cc(=O)n(C)cc1-c1cc(NC(=O)c2cncs2)ccc1Oc1ccc(F)cc1F [Example 411]; 47
5) CCS(=O)(=O)Nc1ccc(Oc2ccc(F)cc2F)c(-c2cn(C)c(=O)cc2-c2cnn(CC(C)C)c2)c1 [Example 391]; 4.59

(P) CCOc1cc(=O)n(C)cc1-c1cc(NS(=O)(=O)c2ccc(C(C)(C)C)cc2)ccc1Oc1ccc(F)cc1F [Example 416]
(Q) CCOc1cc(=O)n(C)cc1-c1cc(NS(=O)(=O)CC)ccc1Oc1cccnc1 [Example 405]
API: POST /compare with P and Q ; response names the item with higher Ki. Answer = label.
P
(P: 281 nM, Q: 4.99 nM)
